# Measurement Notes: Selectivity index, ratio of IC50 for human KB cells to IC50 for Plasmodium falciparum W2
# Format: toxicity, cell-based
# Applied Conditions: read-out: Ratio IC50
Measurement Kind: selectivity ratio
Write no unit; give the number alone.

# count of solved cases: 4
>>> reading("C[C@H]1C[C@H]2CC(C)(C)C=C3CC[C@H]4[C@@H]([C@@H]1CC[C@]4(C)C#N)[C@@H]32")
610
>>> reading("C[C@@H]1C[C@@H]2C[C@H](C)[C@H]3CC[C@](C)(N=C=O)[C@H]4CC[C@@H]([C@@H]2[C@H]34)[C@]1(C)C#N")
36
>>> reading("C=C1CC[C@H]2[C@H]3[C@H](CC[C@]2(C)N=C=S)[C@@H](C)C[C@H](C=C(C)C)[C@]13O")
12
>>> reading("C=C1CC[C@H]2[C@H]3[C@H](CC[C@]2(C)C#N)[C@@H](C)C[C@H](C=C(C)C)[C@H]13")
340

API: the following record is the query input.
Looking for the measured selectivity ratio of CC1=C[C@@H]2C[C@H](C)[C@H]3CC[C@](C)(C#N)[C@H]4CC[C@@H]([C@@H]2[C@H]34)[C@@H]1C , can you help? 930
